- Test system: SK-Hep
- EXPERIMENTAL PROTOCOL: MTT tetrazolium microculture growth inhibition, SK-Hep
- Format: cell-based
- CONDITIONS USED: SK-Hep; 72 h exposure, MTT; read-out: Average growth-inhibitory activity (IC50)
- Method: DMC platinum complexes, together with controls cisplatin, carboplatin, and oxaliplatin were screened for an in vitro antitumor activity against various tumorous cell lines, using a tetrazolium microculture assay. […] MTT assay: The MTT (tetrazolium) assay was used to determine the growth-inhibitory effects of different drugs. […] The amount of reduced MTT was measured by spectrophotometric means (570 nm). Data analysis: A mean value of OD was determined for all of the 12 control wells. […]
# Lookup of reported log10(IC50) keyed by entry
ASSAY METRIC: log10(IC50) (log10 of the value in µM)

• O=C1[O][Pt]2([NH][C@H]3CCCC[C@@H]3[NH]2)[O]C(=O)C2C3CCC(O3)C12 (stereo partly drawn) [Trans-S,S(+)-DMC platinum complex, Trans-S,S-(+)-DMC platinum complex] = 0.79
• O=C1[O][Pt]2([NH][C@@H]3CCCC[C@H]3[NH]2)[O]C(=O)C2C3CCC(O3)C12 (stereo partly drawn) [Trans-R,R(−)-DMC platinum complex, Trans-R,R-(−)-DMC platinum complex] = 0.82
• N.N.[Cl][Pt][Cl] [Cisplatin, reference compound] = 1.13
• O=C1[O][Pt]2([NH][C@@H]3CCCC[C@H]3[NH]2)[O]C(=O)C2C3CCC(O3)C12 (mixture of isomers) [Trans-DMC platinum complex, Trans-Racemic DMC Platinum Complex] = 0.63
• N.N.O=C([O-])C1(C(=O)[O-])CCC1.[Pt+2] [Carboplatin, reference compound] = 2.13
• O=C1[O][Pt]2([NH][C@@H]3CCCC[C@H]3[NH]2)[O]C1=O [Oxaliplatin, reference compound] = 0.96
• O=C1[O][Pt]2([NH][C@H]3CCCC[C@H]3[NH]2)[O]C(=O)C2C3CCC(O3)C12 (stereo partly drawn) [Cis-DMC platinum complex] = 1.29
